Documented growth inhibition across a set of molecules
# experiment-summary: NCI Yeast Anticancer Drug Screen. Data for the bub3 strain (AID 167)
# condition-set: S. cerevisiae bub3 mutant strain, at 33.0 µM, active compounds read high
This is part of a sample that, as a whole, favours compounds with a hit. Of some 79,000 tested, about 15% had one in any assay.

| molecule | growth inhibition, % |
| --- | --- |
| CS(=O)(=O)OCCN(CCOS(C)(=O)=O)c1ccc(C=O)cc1 | 38 |
| COC(=O)C1C2c3ccccc3C(c3ccccc32)C1C(=O)OC (stereo not given) | 1 |
| CCCCN(CCCC)CC(C(C)=O)C(c1ccccc1)c1c(O)c2ccccc2oc1=O (stereo not given) | 22 |
| COc1ccc(OC)c(/C=C/[N+](=O)[O-])c1 | 25 |
| O=C1C2CC(Cl)C(SSC3CC4C(=O)N(SC(Cl)(Cl)C(Cl)Cl)C(=O)C4CC3Cl)CC2C(=O)N1SC(Cl)(Cl)C(Cl)Cl (stereo not given) | 96 |
| O=[N+]([O-])c1ccc(C=Cc2ccccc2)cc1.[C-]#[O+].[C-]#[O+].[C-]#[O+].[Cr] | 67 |
| Nc1nc(N)c2c(Cl)c(CNc3ccc(C(=O)NC(CC(=O)O)C(=O)O)cc3)ccc2n1 (stereo not given) | 7 |
| COc1cccc2c1C(=O)c1c(O)c3c(c(O)c1C2=O)C[C@@](O)(/C(C)=N\O)C[C@@H]3OC1CC(N)C(O)C(C)O1 (stereo not given in full) | 25 |
| Cc1ccc2nc3sc(=O)sc3nc2c1 | 97 |
| CCCCCCCCCC[Se]C#N | 5 |
| OC1CCCC2CCC[N-]C12.OC1CCCC2CCC[N-]C12.[O]=[V][OH] (stereo not given) | 98 |
| Cc1c([N+](=O)[O-])oc2ccc3ccccc3c12 | -18 |
| COC(=O)C1=C(C(=O)OC)SC2(S1)C(C(=O)OC)=C(C(=O)OC)Sc1c2ssc1=O | 98 |
| O=[N+]([O-])c1oc2ccc3ccccc3c2c1CCO | 98 |
| OC(c1ccc(Br)cc1)C(Cl)(Cl)Cl (stereo not given) | 91 |
| COC(=O)C1=C(C(=O)OC)C2OC1c1cc3ccccc3cc12 | 99 |
| Oc1cccc2nc3ccccc3nc12 | -4 |
| O=P(CCCCP(=O)(c1ccccc1)c1ccccc1)(c1ccccc1)c1ccccc1.[Cl][Sn]([Cl])([c]1ccccc1)[c]1ccccc1 | 93 |
| Br[Se]c1ccccn1 | 98 |
| COc1cc(C2c3cc4c(cc3[C@@H](Nc3ccc(N)cc3)C3COC(=O)[C@H]23)OCO4)cc(OC)c1O (stereo not given in full) | 85 |
| c1ccc(N=c2nc(N3CCOCC3)ss2)cc1 | 99 |
| CCNCC(=O)O[C@]1(CC)C(=O)OCc2c1cc1n(c2=O)Cc2cc3ccccc3nc2-1 | -2 |
| O=c1oc2ccccc2c(O)c1C(c1ccc2c(c1)Cc1ccccc1-2)c1c(O)c2ccccc2oc1=O | 63 |
| O=C1c2ccc3ccccc3c2CCC1N1CCCCC1 (stereo not given) | 76 |
| Cc1c2ccccc2cc2ccccc12 | 95 |
